# System: Zika virus NS2B-NS3 protease (unlinked complex)
# PROCEDURE TEXT: Primary screen GU Rhodamine qHTS for Zika virus inhibitors: Unlinked NS2B-NS3 protease assay (AID 1347159); note: nearly all actives have a fitted effect of over 60% in size
# CONDITION SET: Recombinant ZIKV NS2B-NS3 protease, Rhodamine110 substrate fluorescence; series mostly up to 107 µM
Results filed as inconclusive are left out. The source made the active and inactive calls. Calls come from the whole dose curve; as a rule, active = well fitted inhibition curve with a large enough effect; inconclusive = small, poorly fitted or top-dose-only effect; inactive = no such curve, though single readings can be large or run the other way.
Select the correct class. Options are y (active), n (inactive) and nothing else.

Previously resolved entries follow.
Ask | What classification did O=C(O)CNC(=O)c1c(O)c2ccccc2n(Cc2ccccc2)c1=O end up with in this test?
Reply | y

Ask | What outcome does the record of this test show for O=C(Oc1ccc([N+](=O)[O-])cc1)N1CCN(Cc2cccc(Oc3ccccc3)c2)CC1 ?
Reply | n

Ask | Please indicate how the test categorized S=C(NC1CCCCC1)N1CCC(c2cnc[nH]2)CC1 .
Reply | n

Ask | What is the recorded call for this molecule in the test? CCNC(=O)C[C@@H]1N=C(c2ccc(Cl)cc2)c2cc(OC)ccc2-n2c(C)nnc21
Reply | n

Ask | Just curious, what result did CC(N[C@H]1C[C@H]1c1ccccc1)c1ccc2c(c1)OCCO2 (stereo partly drawn) get here?
Reply | n

Next:
Ask | Per the records of this test, what outcome belongs to CCN(CC)C(=O)c1ccc(C2=CC3(CCNCC3)Oc3cccc(O)c32)cc1 ?
Reply | n

Ask | Outcome logged for Cc1ccccc1-n1c(Cn2cnc3c(N)ncnc32)nc2cccc(C)c2c1=O in this assay:
Reply | n

Ask | // param item: CC(C)N(CCNC(=O)CN1CCCC1=O)C(C)C ; yields the recorded call
Reply | n

---

# PROCEDURE TEXT: qHTS Screen of the MIPE 4.0 Collection Against Ewings Sarcoma (RDES) (AID 1259252); note: nearly all actives have a fitted effect of over 35% in size
# CONDITION SET: RD-ES Ewing sarcoma viability, CellTiter-Glo, 48 h; series mostly up to 45.8 µM
Inconclusive results are not listed. Calls of active or inactive are those of the source. Calls follow the shape of the dose curve; as a rule, active = well fitted inhibition curve with a large enough effect; inconclusive = small, poorly fitted or top-dose-only effect; inactive = no such curve, though single readings can be large or run the other way.
Give one outcome, nothing more. List: active, inactive

Ask | Please indicate how the test categorized Cc1c(N)nc([C@H](CC(N)=O)NC[C@@H](N)C(N)=O)nc1C(=O)N[C@H](C(=O)N[C@@H](C)[C@H](O)[C@@H](C)C(=O)N[C@@H](C(=O)NCCc1nc(-c2nc(C(=O)NCCC[S+](C)C)cs2)cs1)[C@@H](C)O)C(O[C@H]1O[C@H](CO)[C@H](O)[C@@H](O)[C@@H]1O[C@H]1O[C@H](CO)[C@@H](O)[C@H](OC(N)=O)[C@H]1O)c1cnc[nH]1 (some centres not stated) .
Reply | active

Ask | // return assay outcome for CC1=NN=C(c2ccc(N)cc2)c2cc3c(cc2C1)OCO3
Reply | inactive

---

# CONDITION SET: Ebola virus entry assay, ratio channel
Active and inactive are the calls of the source. How the calls were made is not given here.
API: response.call in active, inactive

Reference set (3 entries):
Ask | Tell me the assay call for Nc1ccc(N=Nc2ccccc2)cc1 please.
Reply | inactive

Ask | Hey, what did the test say about CC(=O)[O][Hg][c]1ccccc1 ?
Reply | active

Ask | Dear all, I need the recorded test outcome for Nc1ccc(Cl)cc1N , thank you.
Reply | inactive

Next:
Ask | For this compound, state the assay outcome: O=[N+]([O-])c1cc([N+](=O)[O-])c2ccccc2c1
Reply | inactive

Ask | Outcome? C=CC(=O)NCNC(=O)C=C
Reply | inactive
